Target: FGFR3 (UniProt P22607)
Sequence (P22607 whole entry, looked up): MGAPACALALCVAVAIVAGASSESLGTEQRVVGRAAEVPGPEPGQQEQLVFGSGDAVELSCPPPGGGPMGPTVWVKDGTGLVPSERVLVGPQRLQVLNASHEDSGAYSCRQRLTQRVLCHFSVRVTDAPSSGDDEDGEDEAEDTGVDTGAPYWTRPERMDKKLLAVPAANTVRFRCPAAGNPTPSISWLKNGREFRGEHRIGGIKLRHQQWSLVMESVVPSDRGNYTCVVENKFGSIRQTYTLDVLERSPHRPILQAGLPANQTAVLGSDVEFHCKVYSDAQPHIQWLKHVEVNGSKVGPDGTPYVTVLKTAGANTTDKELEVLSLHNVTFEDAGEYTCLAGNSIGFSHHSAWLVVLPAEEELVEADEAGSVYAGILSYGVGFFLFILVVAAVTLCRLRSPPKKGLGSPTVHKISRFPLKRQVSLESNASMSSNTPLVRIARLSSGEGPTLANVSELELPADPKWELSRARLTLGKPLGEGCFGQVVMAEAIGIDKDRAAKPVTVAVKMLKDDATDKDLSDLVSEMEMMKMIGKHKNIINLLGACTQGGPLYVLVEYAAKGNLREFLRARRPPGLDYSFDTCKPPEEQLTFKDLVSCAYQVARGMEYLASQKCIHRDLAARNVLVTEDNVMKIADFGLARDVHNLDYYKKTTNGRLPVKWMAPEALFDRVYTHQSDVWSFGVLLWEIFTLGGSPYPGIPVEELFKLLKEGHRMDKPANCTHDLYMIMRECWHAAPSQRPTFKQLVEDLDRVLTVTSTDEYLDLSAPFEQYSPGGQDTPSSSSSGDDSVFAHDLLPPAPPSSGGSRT
Assay: phosphorylation enrichment, bacterial display (enrichment ratio); higher = better substrate or ligand; peptides without Tyr show the background
In this section we review reported phosphorylation enrichment values for a set of sequences.
Enter the number alone.

Use the examples below as a reference point.
In [3]: df
Out[3]:
                        sequence             recorded_metric  observed_result
0         GIKAAYEAELG [LMNA_Y81]  phosphorylation enrichment            0.496
1  VPVNGYQPVTA [ROR2_Y824_P828T]  phosphorylation enrichment            0.535
2   GNLLIYTEFGN [HGD_Y166_K171N]  phosphorylation enrichment            0.903

Query string: Quick one: phosphorylation enrichment for SGIFQYIIAKF [FOXL2_Y83_YF] ?
Result string: 0.704

Query string: Quick one: phosphorylation enrichment for RRNVFYFSFLL [PTEN_Y177_Y174N_YF] ?
Result string: 0.709

Query string: Quick one: phosphorylation enrichment for LIGRRCDDPEV [HSPA9_Y128_Y128C] ?
Result string: 1.03

Query string: Quick one: phosphorylation enrichment for YFCRWYRNQKS [EREG_Y144_R147Q] ?
Result string: 0.548

Query string: Quick one: phosphorylation enrichment for TDTAAYEERVR [SPTB_Y474] ?
Result string: 0.494

Query string: Quick one: phosphorylation enrichment for TNIKRYHIAKV [HARS1_Y150] ?
Result string: 0.328

Query string: Quick one: phosphorylation enrichment for AGVIIYTSRFQ [PFAS_Y538_A535V] ?
Result string: 0.792

* * *

Tested on: c-Src
Assay: phosphorylation enrichment, bacterial display (enrichment ratio); higher = better substrate or ligand; peptides without Tyr show the background
Label Fulfilled when phosphorylation enrichment is at or above 0.5; anything below gets Not fulfilled.

Query string: Textbook exercise: given the entry ALLTKYSHSSM [DSCC1_Y374] , state whether its phosphorylation enrichment is greater than or equal to 0.5.
Result string: Fulfilled

* * *

Target: c-Src SH2
Experiment: SH2 binding enrichment of the phosphorylated peptide, bacterial display (enrichment ratio); higher = better substrate or ligand; peptides without Tyr show the background
recorded_metric: SH2 binding enrichment

Use the examples below as a reference point.
>>> df
                          sequence  observed_result
0  GIVEDYRPPFC [ACVRL1_Y421_Y426C]            0.569
1      RESFKYFPSSL [CXXC1_Y218_YF]            0.367
2     EKEQNYDLTQV [ECD_Y448_E452Q]            0.486

Here is another sequence to look at.
Query string: Item: SNMPSYSGHFT [GRIN2A_Y1224_T1223S] Test system: c-Src SH2 Read-out: SH2 binding enrichment Value: ?
Result string: 0.548

* * *

Target: SHP2-C SH2
Test: SH2 binding enrichment of the phosphorylated peptide, bacterial display (enrichment ratio); higher = better substrate or ligand; peptides without Tyr show the background
recorded_metric: SH2 binding enrichment
Enter the number alone.

Query string: Quick one: SH2 binding enrichment for CGTPEYRAPEI [PRKACA_Y205_L206R] ?
Result string: 0.735

* * *

Tested on: c-Src
Assay: phosphorylation enrichment, bacterial display (enrichment ratio); higher = better substrate or ligand; peptides without Tyr show the background
Label class 1 when phosphorylation enrichment is at or above 0.4; anything below gets class 0.

Please review the following examples before continuing.
In [3]: df
Out[3]:
                         sequence  target_entity  assigned_category
0   VPVNGYQPVTA [ROR2_Y824_P828T]          c-Src            class 0
1       PLFKIYVAELI [MRPL28_Y230]          c-Src            class 1
2         AKLDEYIAIAK [RCOR3_Y46]          c-Src            class 0
3  LQRVQCDLQKA [DSP_Y1512_Y1512C]          c-Src            class 1
4   PATINYLFEKG [NDUFS8_Y84_P85L]          c-Src            class 1

Query string: Textbook exercise: given the entry KFGTNYRVGSS [CPO_Y278_YF] , state whether its phosphorylation enrichment is greater than or equal to 0.4.
Result string: class 1

Query string: Textbook exercise: given the entry FSKTQYNQVPS [CXADR_Y318_YF] , state whether its phosphorylation enrichment is greater than or equal to 0.4.
Result string: class 1

Query string: Textbook exercise: given the entry ITNHIYTWVDP [DFNB31_Y234_V229I] , state whether its phosphorylation enrichment is greater than or equal to 0.4.
Result string: class 1

Query string: Textbook exercise: given the entry DDLEVYLKHLL [SACS_Y3477] , state whether its phosphorylation enrichment is greater than or equal to 0.4.
Result string: class 1

Query string: Textbook exercise: given the entry PPAPRYHDSAV [LZTR1_Y119_H121D] , state whether its phosphorylation enrichment is greater than or equal to 0.4.
Result string: class 1

Query string: Textbook exercise: given the entry SVTCTSSPALN [TP53_Y126_Y126S] , state whether its phosphorylation enrichment is greater than or equal to 0.4.
Result string: class 1

Query string: Textbook exercise: given the entry DKATEYIQYVR [MAX_Y70_M74V] , state whether its phosphorylation enrichment is greater than or equal to 0.4.
Result string: class 1

Query string: Textbook exercise: given the entry KNRDVYSSDFF [USP24_Y2134_YF] , state whether its phosphorylation enrichment is greater than or equal to 0.4.
Result string: class 1

Query string: Textbook exercise: given the entry YDCGMYSHLQG [LGR4_Y848] , state whether its phosphorylation enrichment is greater than or equal to 0.4.
Result string: class 1

Query string: Textbook exercise: given the entry KIDAKYKKKIE [WDR19_Y1230] , state whether its phosphorylation enrichment is greater than or equal to 0.4.
Result string: class 0

src = the supplement of paper PMC10065799
